Value source: PubChem BioAssay (NCI)

# Test system: HOP-62 NSCLC
# Experiment: NCI tumour cell line growth inhibition, 48 h
Attribute Measured: TGI

In [3]: df
Out[3]:
                                   compound  attribute_measured  reported_result
0  C1C[OH+]CCNCC[OH+]CC[OH+]CCN1.N.[Cl-].[Pt+4]                 TGI         > 100 µM
1  C=CCn1c(=O)c(Br)nn(CCOCP(=O)(OCC)OCC)c1=O                 TGI         > 100 µM
2  C1=CC=C2NCCc3cccc(c3)CCNC3=CC=CC=CC3=NCCCCCCN=C2C=C1                 TGI          34.4 µM

Please examine the following record next.
The measured TGI associated with COCN1C(=N)C(C(=O)OC(C)(C)C)=C2C=C(O)C=CC21C (stereo unspecified) reads 75.2 µM
